molecular target: HLA-A*03:01; assay: IEDB peptide-MHC binding, purified MHC/direct/fluorescence; filed as Kd, often an IC50 or EC50 that approximates it; bounds were set here for any values at or beyond the usual limits of such assays; settings: source organism: Bacillus licheniformis
measured.quantity: Kd (nM)

sequence.record	target.or.test.system	measured.quantity	reported.value
ALMEITSRY	HLA-A*03:01	Kd	259

###

biological target: HLA-A*31:01; assay: IEDB peptide-MHC binding, purified MHC/competitive/fluorescence; filed as Kd, often an IC50 or EC50 that approximates it; bounds were set here for any values at or beyond the usual limits of such assays; settings: source organism: Yersinia pestis KIM10+
measured.quantity: Kd (nM)

sequence.record	scale.unit	reported.value
RPQLWRYRW	nM	1810
